Just for reference, ChEMBL document CHEMBL3991601 is where these values come from.

target: General transcription and DNA repair factor IIH helicase subunit XPD (Homo sapiens); conditions: read-out: Kd apparent; k-562, colo 205, sk-n-be(2) and mv-4-11; also: in the data inactive means no Kd found up to 30 µM
Sequence (P18074 whole entry): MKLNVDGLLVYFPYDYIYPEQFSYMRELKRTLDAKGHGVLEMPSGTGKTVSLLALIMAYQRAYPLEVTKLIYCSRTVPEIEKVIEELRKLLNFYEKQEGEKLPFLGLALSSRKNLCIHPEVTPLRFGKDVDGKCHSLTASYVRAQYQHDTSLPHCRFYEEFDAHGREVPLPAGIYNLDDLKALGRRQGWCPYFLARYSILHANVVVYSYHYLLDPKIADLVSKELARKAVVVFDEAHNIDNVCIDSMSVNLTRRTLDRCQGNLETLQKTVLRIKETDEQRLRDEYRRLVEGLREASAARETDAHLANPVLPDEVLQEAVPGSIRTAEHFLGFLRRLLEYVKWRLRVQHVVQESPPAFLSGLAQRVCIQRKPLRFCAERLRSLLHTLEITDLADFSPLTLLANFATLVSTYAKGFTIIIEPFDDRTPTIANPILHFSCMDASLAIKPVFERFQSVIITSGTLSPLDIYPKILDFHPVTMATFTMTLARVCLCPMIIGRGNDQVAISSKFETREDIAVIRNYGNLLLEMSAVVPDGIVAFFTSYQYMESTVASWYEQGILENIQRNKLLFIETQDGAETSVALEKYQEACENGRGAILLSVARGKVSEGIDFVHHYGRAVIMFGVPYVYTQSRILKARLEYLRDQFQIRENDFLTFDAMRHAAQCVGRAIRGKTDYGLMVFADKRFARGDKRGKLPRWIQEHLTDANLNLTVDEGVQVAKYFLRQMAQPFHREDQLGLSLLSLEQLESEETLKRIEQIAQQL
Activity calls are given as the source filed them. Rule as the data show it: actives have a measured Kd and inactives only a lower limit.
Choose the fitting class; nothing outside active, inactive is accepted.

Look over these answered cases.
{"columns": ["molecule", "assayed system", "assigned label"],
 "data": [
  ["O=S(=O)(c1cccc2cnccc12)N1CCCNCC1", "General transcription and DNA repair factor IIH helicase subunit XPD (Homo sapiens)", "inactive"],
  ["Cn1cnc2c(F)c(Nc3ccc(Br)cc3Cl)c(C(=O)NOCCO)cc21", "General transcription and DNA repair factor IIH helicase subunit XPD (Homo sapiens)", "inactive"],
  ["COc1ccc2c(OCc3nnc4ccc(-c5ccccc5)nn34)ccnc2c1", "General transcription and DNA repair factor IIH helicase subunit XPD (Homo sapiens)", "inactive"],
  ["CC1(COc2ccc3c(c2)ncn3-c2ccc3cccc(N4CCC(N)CC4)c3n2)COC1", "General transcription and DNA repair factor IIH helicase subunit XPD (Homo sapiens)", "inactive"],
  ["Cc1ccc(C(=O)Nc2ccc(Oc3cc4cnn(C)c4cc3-c3cn[nH]c3)c(F)c2)c(=O)n1-c1ccc(F)cc1", "General transcription and DNA repair factor IIH helicase subunit XPD (Homo sapiens)", "inactive"],
  ["O[C@H]1CC[C@H](Nc2ncc3nc(Nc4c(F)cc(F)cc4F)n([C@H]4CCOC4)c3n2)CC1", "General transcription and DNA repair factor IIH helicase subunit XPD (Homo sapiens)", "inactive"]
]}

Tell me the recorded outcome of this test for NC(=O)c1ccc(N(C(N)=O)c2c(F)cccc2F)nc1-c1ccc(F)cc1F .
inactive

Fill in: this test's call for COc1cc2ncnc(Nc3ccc(F)c(Cl)c3)c2cc1NC(=O)/C=C/CN1CCCCC1 [DACOMITINIB ANHYDROUS] is ___
inactive

# lookup: test call for Cc1cc(-c2cc(OC(=O)c3ccccc3)ccc2Cl)cc2nnc(Nc3ccc(OCCN4CCCC4)cc3)nc12
inactive

I would be grateful if you could indicate the recorded call for CNC(=O)c1cc(COc2nnc(Nc3ccc(Cl)cc3)c3ccoc23)ccn1 .
inactive

Please let me know the test result on file for CN(c1ncccc1CNc1nc(Nc2ccc3c(c2)CC(=O)N3)ncc1C(F)(F)F)S(C)(=O)=O .
active

Status in this test for COc1cc(Nc2ncc(F)c(Nc3ccc4c(n3)N(COP(=O)(O)O)C(=O)C(C)(C)O4)n2)cc(OC)c1OC ?
inactive

GET /call?item= O=c1[nH]c([C@@H]2CCCN2)nc2c1oc1ccc(Cl)cc12 returns the recorded outcome of this test.
inactive

Assay outcome for C=CCn1c(=O)c2cnc(Nc3ccc(N4CCN(C)CC4)cc3)nc2n1-c1cccc(C(C)(C)O)n1 : what was it?
inactive

Hi team, can someone confirm the assay call for S=C(NCc1ccc2c(c1)OCO2)N1CCN(c2ncnc3c2oc2ccccc23)CC1 ?
inactive

Status in this test for CC[C@@](C)(Nc1ccnc(-c2c[nH]c3ncccc23)n1)C(=O)NCC(F)(F)F ?
inactive

I'd appreciate the recorded outcome for CC1(C)CNc2cc(NC(=O)c3cccnc3NCc3ccncc3)ccc21 from this test.
inactive

----------
biological target: Serine/threonine-protein kinase SIK3 (Homo sapiens, UniProt Q9Y2K2); also: in the data inactive means no Kd found up to 30 µM
Sequence (Q9Y2K2 whole entry): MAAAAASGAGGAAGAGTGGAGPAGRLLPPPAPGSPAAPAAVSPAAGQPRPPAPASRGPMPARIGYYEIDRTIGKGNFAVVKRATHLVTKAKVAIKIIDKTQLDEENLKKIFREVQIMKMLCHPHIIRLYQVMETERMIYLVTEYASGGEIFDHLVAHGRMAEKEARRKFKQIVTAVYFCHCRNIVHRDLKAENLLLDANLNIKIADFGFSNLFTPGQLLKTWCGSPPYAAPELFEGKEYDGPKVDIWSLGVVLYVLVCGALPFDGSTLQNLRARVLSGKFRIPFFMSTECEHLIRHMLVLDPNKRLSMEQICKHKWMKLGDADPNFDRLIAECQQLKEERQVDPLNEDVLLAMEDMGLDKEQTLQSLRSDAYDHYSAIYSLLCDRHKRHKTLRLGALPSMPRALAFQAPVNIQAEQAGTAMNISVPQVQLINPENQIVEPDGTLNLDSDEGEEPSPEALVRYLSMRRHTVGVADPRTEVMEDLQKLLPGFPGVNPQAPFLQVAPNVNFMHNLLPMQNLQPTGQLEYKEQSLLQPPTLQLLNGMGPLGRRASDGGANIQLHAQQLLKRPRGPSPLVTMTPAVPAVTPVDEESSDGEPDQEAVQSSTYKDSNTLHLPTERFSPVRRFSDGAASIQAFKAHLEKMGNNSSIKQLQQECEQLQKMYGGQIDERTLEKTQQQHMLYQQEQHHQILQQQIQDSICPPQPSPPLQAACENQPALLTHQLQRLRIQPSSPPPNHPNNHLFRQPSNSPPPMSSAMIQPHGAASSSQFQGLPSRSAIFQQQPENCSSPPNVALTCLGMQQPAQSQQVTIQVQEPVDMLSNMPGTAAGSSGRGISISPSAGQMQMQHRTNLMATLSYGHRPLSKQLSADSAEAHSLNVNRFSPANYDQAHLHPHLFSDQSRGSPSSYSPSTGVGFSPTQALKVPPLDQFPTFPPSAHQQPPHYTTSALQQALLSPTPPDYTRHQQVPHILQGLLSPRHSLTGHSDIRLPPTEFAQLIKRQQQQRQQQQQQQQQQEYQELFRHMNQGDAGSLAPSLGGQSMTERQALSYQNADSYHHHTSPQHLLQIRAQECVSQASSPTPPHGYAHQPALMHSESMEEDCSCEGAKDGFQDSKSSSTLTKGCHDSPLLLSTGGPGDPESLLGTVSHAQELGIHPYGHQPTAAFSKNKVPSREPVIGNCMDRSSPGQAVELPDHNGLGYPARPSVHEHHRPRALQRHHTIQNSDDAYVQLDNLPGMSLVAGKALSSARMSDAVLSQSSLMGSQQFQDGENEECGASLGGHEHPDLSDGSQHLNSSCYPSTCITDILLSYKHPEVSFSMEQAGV
Calls of active or inactive are those of the source.
Entry note: the call must match one of true (1) = active, false (0) = inactive

Reference set, count: 3
{"columns": ["molecule", "assigned label"],
 "data": [
  ["S=C(NCc1ccc2c(c1)OCO2)N1CCN(c2ncnc3c2oc2ccccc23)CC1 [AMUVATINIB]", "false (0)"],
  ["COc1cc(F)c(F)c(Nc2ccc(I)cc2F)c1NS(=O)(=O)C1(C[C@H](O)CO)CC1 [REFAMETINIB]", "false (0)"],
  ["COc1cc(Nc2ncc(F)c(Nc3ccc4c(n3)N(COP(=O)(O)O)C(=O)C(C)(C)O4)n2)cc(OC)c1OC [FOSTAMATINIB]", "false (0)"]
]}

I would be grateful if you could indicate the recorded call for NC(=O)c1ccc(N(C(N)=O)c2c(F)cccc2F)nc1-c1ccc(F)cc1F [VX-702] .
false (0)

Field: outcome | Entry: COc1cc2ncnc3c2cc1OCCCCCN(C)Cc1ccc(Br)cc1N3 [JNJ-26483327]
false (0)

Hi, do you know how O[C@H]1CC[C@H](Nc2ncc3nc(Nc4c(F)cc(F)cc4F)n([C@H]4CCOC4)c3n2)CC1 [TANZISERTIB] came out in this test?
true (1)

Hey, what did the test say about Cc1cc(C(=O)Nc2cc(Oc3ccc4nc(NC(=O)C5CC5)cn4n3)ccc2C)n(C)n1 [TAK-593] ?
false (0)

What call does the record list for Cc1c(Cn2c(C)nc3c(C(=O)O)cc(N4CCOCC4)cc32)cccc1C(F)(F)F [GSK-2636771] ?
false (0)

----------
molecular target: Dual specificity protein kinase CLK2 (Homo sapiens); also: in the data inactive means no Kd found up to 30 µM
Sequence (P49760 whole entry): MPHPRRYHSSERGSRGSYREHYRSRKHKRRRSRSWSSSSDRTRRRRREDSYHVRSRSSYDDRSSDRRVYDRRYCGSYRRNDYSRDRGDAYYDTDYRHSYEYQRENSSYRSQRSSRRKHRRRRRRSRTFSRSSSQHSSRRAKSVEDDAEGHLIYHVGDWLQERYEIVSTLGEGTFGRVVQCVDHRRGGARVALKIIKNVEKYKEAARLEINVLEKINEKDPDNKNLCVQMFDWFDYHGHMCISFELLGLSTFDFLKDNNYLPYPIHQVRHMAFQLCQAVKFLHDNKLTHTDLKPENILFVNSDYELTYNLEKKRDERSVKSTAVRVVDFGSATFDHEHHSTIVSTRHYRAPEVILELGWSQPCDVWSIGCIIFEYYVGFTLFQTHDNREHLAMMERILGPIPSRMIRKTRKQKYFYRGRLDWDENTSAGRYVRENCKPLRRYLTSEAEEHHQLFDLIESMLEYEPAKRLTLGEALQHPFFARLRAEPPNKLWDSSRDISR
The source made the active and inactive calls.
reported endpoint: Kd

Consider the following illustrative entries.
{"columns": ["smiles str", "Kd"],
 "data": [
  ["C=CC(=O)Nc1cc(Nc2nccc(-c3cn(C)c4ccccc34)n2)c(OC)cc1N(C)CCN(C)C", "> 30 µM (inactive)"],
  ["C[C@@H]1COC(Nc2ccc3ncnc(Nc4ccc(OCc5nccs5)c(Cl)c4)c3c2)=N1", "> 30 µM (inactive)"],
  ["CNC(=O)c1cccc(-c2ccc3c(N4CCOC[C@@H]4C)nc(N4CCOC[C@@H]4C)nc3n2)c1", "> 30 µM (inactive)"]
]}

Please report the recorded Kd for NC(=O)c1ccc(N(C(N)=O)c2c(F)cccc2F)nc1-c1ccc(F)cc1F .
> 30 µM (inactive)

----------
biological target: Interleukin-1 receptor-associated kinase 1 (Homo sapiens); also: in the data inactive means no Kd found up to 30 µM
Sequence (P51617 whole entry): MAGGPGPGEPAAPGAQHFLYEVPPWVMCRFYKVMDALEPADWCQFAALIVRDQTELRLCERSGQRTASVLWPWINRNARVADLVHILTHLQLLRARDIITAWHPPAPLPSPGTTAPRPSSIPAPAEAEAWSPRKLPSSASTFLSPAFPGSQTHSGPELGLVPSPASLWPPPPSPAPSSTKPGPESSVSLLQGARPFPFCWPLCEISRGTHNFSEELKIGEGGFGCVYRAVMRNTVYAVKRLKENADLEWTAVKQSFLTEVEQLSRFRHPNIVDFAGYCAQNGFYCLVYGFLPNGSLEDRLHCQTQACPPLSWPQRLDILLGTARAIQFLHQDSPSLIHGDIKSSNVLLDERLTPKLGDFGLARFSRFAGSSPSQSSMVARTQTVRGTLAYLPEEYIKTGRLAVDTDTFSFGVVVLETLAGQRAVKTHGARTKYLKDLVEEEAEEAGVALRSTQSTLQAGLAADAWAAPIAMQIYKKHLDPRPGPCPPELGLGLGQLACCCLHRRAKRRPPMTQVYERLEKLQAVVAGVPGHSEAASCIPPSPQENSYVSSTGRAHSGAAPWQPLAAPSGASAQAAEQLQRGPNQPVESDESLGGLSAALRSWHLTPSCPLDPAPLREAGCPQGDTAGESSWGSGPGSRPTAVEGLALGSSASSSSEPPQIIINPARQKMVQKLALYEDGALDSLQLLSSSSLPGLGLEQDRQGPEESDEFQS
Active and inactive are the calls of the source.
Give one outcome, nothing more. List: true (1) for active, false (0) for inactive

The following molecules have reported results that may help.
{"columns": ["molecule", "assigned label"],
 "data": [
  ["C=CC(=O)Nc1cc(Nc2nccc(-c3cn(C)c4ccccc34)n2)c(OC)cc1N(C)CCN(C)C [OSIMERTINIB]", "false (0)"],
  ["C=CCn1c(=O)c2cnc(Nc3ccc(N4CCN(C)CC4)cc3)nc2n1-c1cccc(C(C)(C)O)n1 [ADAVOSERTIB]", "false (0)"],
  ["COc1cccc2cc(-c3nc([C@H]4CC[C@H](C(=O)O)CC4)n4ncnc(N)c34)[nH]c12 [OSI-027]", "false (0)"],
  ["COc1ccc(-c2ccc3ncc4c(c3c2)n(-c2ccc(N3CCNCC3)c(C(F)(F)F)c2)c(=O)n4C)cn1 [BGT-226 FREE BASE]", "false (0)"]
]}

What call does the record list for COc1cc(Nc2ncc(F)c(Nc3ccc4c(n3)N(COP(=O)(O)O)C(=O)C(C)(C)O4)n2)cc(OC)c1OC [FOSTAMATINIB] ?
false (0)

Hi, do you know how Cc1cc(-c2cc(OC(=O)c3ccccc3)ccc2Cl)cc2nnc(Nc3ccc(OCCN4CCCC4)cc3)nc12 [TG100-801] came out in this test?
false (0)

Lab log entry: COc1cc2ncnc3c2cc1OCCCCCN(C)Cc1ccc(Br)cc1N3 [JNJ-26483327] — outcome as called in the assay?
false (0)

// param item: CCc1nc(C(N)=O)c(Nc2ccc(N3CCC(N4CCN(C)CC4)CC3)c(OC)c2)nc1NC1CCOCC1 [GILTERITINIB] ; yields the recorded call
false (0)

For COc1cc(F)c(F)c(Nc2ccc(I)cc2F)c1NS(=O)(=O)C1(C[C@H](O)CO)CC1 [REFAMETINIB] , what call appears in the results of this test?
false (0)

Any idea what this test logged for O=c1[nH]c([C@@H]2CCCN2)nc2c1oc1ccc(Cl)cc12 ?
false (0)

Which outcome was entered for the molecule O=C(NOC[C@H](O)CO)c1ccc(F)c(F)c1Nc1ccc(I)cc1F [MIRDAMETINIB] in this test?
false (0)

Hey, what did the test say about CCN1CCN(Cc2ccc(Nc3ncc(F)c(-c4cc(F)c5nc(C)n(C(C)C)c5c4)n3)nc2)CC1 [ABEMACICLIB] ?
true (1)

Tell me the assay call for O=S(=O)(c1cccc2cnccc12)N1CCCNCC1 [FASUDIL] please.
false (0)

----------
Overview of reported Kd across a group of molecules:
biological target: Ephrin type-B receptor 6 (Homo sapiens, UniProt O15197); also: in the data inactive means no Kd found up to 30 µM
Sequence (O15197 whole entry): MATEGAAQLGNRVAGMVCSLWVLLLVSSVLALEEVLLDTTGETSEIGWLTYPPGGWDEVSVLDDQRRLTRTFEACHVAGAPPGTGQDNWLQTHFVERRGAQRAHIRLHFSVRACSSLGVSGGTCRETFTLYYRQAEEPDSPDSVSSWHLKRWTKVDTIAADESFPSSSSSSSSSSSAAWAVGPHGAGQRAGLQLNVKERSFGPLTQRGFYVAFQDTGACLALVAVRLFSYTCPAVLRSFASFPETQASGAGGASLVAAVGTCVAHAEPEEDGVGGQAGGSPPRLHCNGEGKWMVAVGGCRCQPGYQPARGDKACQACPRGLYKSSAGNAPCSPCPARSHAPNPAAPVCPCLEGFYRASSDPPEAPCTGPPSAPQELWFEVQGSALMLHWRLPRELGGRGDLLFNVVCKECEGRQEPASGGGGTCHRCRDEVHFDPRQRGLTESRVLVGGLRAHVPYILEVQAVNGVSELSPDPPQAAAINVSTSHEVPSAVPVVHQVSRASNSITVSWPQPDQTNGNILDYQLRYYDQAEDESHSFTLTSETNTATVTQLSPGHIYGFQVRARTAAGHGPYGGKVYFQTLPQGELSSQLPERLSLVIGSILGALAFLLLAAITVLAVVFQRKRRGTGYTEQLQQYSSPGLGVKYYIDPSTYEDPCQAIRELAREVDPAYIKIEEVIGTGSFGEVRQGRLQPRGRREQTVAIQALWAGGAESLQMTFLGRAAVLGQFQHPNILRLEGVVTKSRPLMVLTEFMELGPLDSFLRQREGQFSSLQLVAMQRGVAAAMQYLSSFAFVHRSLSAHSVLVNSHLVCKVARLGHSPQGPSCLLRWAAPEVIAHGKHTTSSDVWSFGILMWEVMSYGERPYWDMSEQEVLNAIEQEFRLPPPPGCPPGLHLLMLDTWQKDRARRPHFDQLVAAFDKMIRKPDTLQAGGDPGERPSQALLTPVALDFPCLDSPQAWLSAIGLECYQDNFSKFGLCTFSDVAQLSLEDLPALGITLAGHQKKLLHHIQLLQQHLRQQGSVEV
Activity calls are given as the source filed them.

{"columns": ["molecule", "Kd"],
 "data": [
  ["C[C@@H]1COC(Nc2ccc3ncnc(Nc4ccc(OCc5nccs5)c(Cl)c4)c3c2)=N1", "> 30 µM (inactive)"],
  ["O=c1[nH]c([C@@H]2CCCN2)nc2c1oc1ccc(Cl)cc12", "> 30 µM (inactive)"],
  ["C=CCN(/C=C1/C(=O)O[C@H](COC)[C@@]2(C)C1=C(O)C(=O)C1=C2[C@H](OC(C)=O)C[C@]2(C)C(=O)CC[C@@H]12)CC=C", "> 30 µM (inactive)"],
  ["CNC(=O)c1ccc(Nc2ncc(C(F)(F)F)c(NCc3nccnc3N(C)S(C)(=O)=O)n2)cc1", "> 30 µM (inactive)"]
]}

Which Kd reading was recorded for the molecule CC[C@@](C)(Nc1ccnc(-c2c[nH]c3ncccc23)n1)C(=O)NCC(F)(F)F ?
> 30 µM (inactive)

Entry C#Cc1cccc(Nc2ncnc3cc4c(cc23)OCCOCCOCCO4)c1 has what Kd?
> 30 µM (inactive)

# lookup: Kd of O=S(=O)(c1cccc2c(O)nccc12)N1CCCNCC1 [HYDROXYFASUDIL]
> 30 µM (inactive)

What value of Kd has been reported for the following molecule? COc1cc2ncnc3c2cc1OCCCCCN(C)Cc1ccc(Br)cc1N3
> 30 µM (inactive)
